Data provenance is the nanobody polyreactivity screen of Harvey et al. (2022).

Test: yeast display, Sf9 membrane polyspecificity reagent, FACS + sequencing; frameworks hold sequencing errors
quantity-measured: polyreactivity (PSR sort gate)

QVQLVESGGGLVQAGGSLRLSCAASGRIFSTYAMGWYRQAPGKERELVAAISWRGGNTYYADSVKGRFTISRDNAKNTVYLQMNSLKPEDTAVFYCAAASFAYPYRNSALDYWGQGTQVTVSS = high polyreactivity
RFQLVESGGGLVQAGGSLRLSCAASGFTFRDYSMGGYRQAPGKERELVATISWGGASTSYADSVKGRFTISRDNAKNTVYLQMNSLKPEDTAVYYCNVRAQRRHGGYDHWGQGTLVTVSS = low polyreactivity
QVQLVESGGGLVQAGGSLRLSCAASGFTFAYYAMGWYRQAPRKESELVAGISWRGGRTYYADSVKGRFTISRDNAKNTVYLQMNSLKPEDTAVYYCAKQPGNFGRFDYWGQGTQVTVSS = high polyreactivity
QVQLVESGGGLVQAGGSLRLSCAASGRIFWLYAMGWYRQAPGKERELVAVISWSGGTTYYADSVKGRFTISRDNAKNTVYLQMNSLKPEYTAVYYCAAQVGYYTNYGEFDYLGQGTQVTVSS = low polyreactivity

For record `HVQLVESGGGLVQAGGSLRLSCAASGRIFGVYVMGWYRPAPGKERELVAGISPSGGSTYYADSVKGRFTISRDNAKNTVYLQMNSLKPEDTAVYYCAAVLRIRRPRYGYWGQGTQVTVSS` the listed polyreactivity (PSR sort gate) is high polyreactivity

---

Experiment: yeast display, Sf9 membrane polyspecificity reagent, FACS + sequencing; frameworks hold sequencing errors
quantity-measured: polyreactivity (PSR sort gate)

QVQLVESGGGLVQAGGSLRLICAASGRIFRYYAMGWSRQAPGKERELVAAIRSASSTYYADSVNGRFTISRDNAKITVYLKMNSLIPEDTSVYYCADRLYGVYKRRYYYWGQGTQVTVSS = high polyreactivity
QVQLVESGGGLVQAGGSLRLSCAASGFTYNRYAMGWYRQAPGKERELVAGISWGGGSTYYADSVKGRFTISRDNAKNTVYLQMNSLKPEDTAVYYCAAGWQHYRRYGSYDYWGQGTQVTVSS = high polyreactivity
QVQHVESGGGLVQAGGSLRLSCAASGFISYFYAMGWYRQAPGKERELVPVNTQSGGSTYFADSVKGRFTISRDNAKNTVYLQMNSLKPEDTAVYYCNADTVRDYPFFSVSYYYWGQGTQVTVSS = low polyreactivity
QVQLVESGGGLVQAGGSLRLSCAASGSTFGFNAMGWYRQAPGKERELVAAITKSGGSTYYADSVKGRFTISRDNAKNTVYLQMNSLKPEDTAVYYCAARRSGRKYDYWGQGTQVTVSS = high polyreactivity
QVQLVESGGGLVQAGGSLRLSCAASGSTFLGNAMGWYSQAPGKERELVASISWSGGSTSYADSVKGRFTISRDIAKNTVYLLMNSLKPEDTAVYYCAVDWRYTGRTYYGMESWGQGTQVTVSS = low polyreactivity

For record `QVQLVESGGGIVQAGGSLRLSCAASGRTIPPYGMGWYRQAPGKERELVAAISKSSGSTNYADSVKGRVTISRDNAKNTVYLQMNSLKPEDTAVYYCTKEWSIGPTGIRAYVRVWYYYWGQGTQVTVSS` the listed polyreactivity (PSR sort gate) is low polyreactivity

For record `QVQLVESGGGLVQAGGSLRLSCAASGSILYRYAMGWSRPAPGKERELDAAISYNGGRTYYADSVKGRFSISRDNAKNTVYLQMNSLKPEDTAVYYCNAAGRDDAYDYWGQGTQVTVSS` the listed polyreactivity (PSR sort gate) is high polyreactivity

For record `QVQLVESGGGLVQAGGSLRLSCAASGFIFPWYAMGWYRLAPGKERELVAIISWDTGSTYYADSVKGRFTISRDNAKNTVYLQMNSLKPEDTAVYYCVAYVCSTYSAPEYYWGQGTQVTVSS` the listed polyreactivity (PSR sort gate) is low polyreactivity

For record `QVQLVESGGRLVQAGGSLRLSCAAYGSTFQVNAMGWYRQAPGKERELVAAISRGGGSTYYADSVKGRFTISRDNAKNTVYLQMNSLKPEETAVYYCAAVYYRRISQGDTQTYYQYNYWGQGTQVTVSS` the listed polyreactivity (PSR sort gate) is high polyreactivity

For record `QVQLVESGGGLVQAGGSLRLSCAASGRIFNYAMGWYRQAPGKERELVAAISRGGGRTYYADSVKGRFTISRDNAKNTVYLQMNSLKPEDTAVYYCAADLSPEYDYWGQGTQVTVSS` the listed polyreactivity (PSR sort gate) is high polyreactivity

For record `QVQLVESGGGLVQAGGSLRLSCAASGIILWRNAMGWYRQAPGKDRELVAAITSSGGRTYYADSVKGRFTISRDNAKNTVYLQMNSLKPEDTAVYYCSAYGYSIGPYDYWGQGTQVTVSS` the listed polyreactivity (PSR sort gate) is high polyreactivity

For record `QVQLVESGGGLVQAGGSLRLSCAASGRIFSRYAMGWYRQAPGKERELVAAINKSGGSTYYADSVKGRFTISRDNAKNTVYLQMNSLKPEDTAVYYCNAVYYWYKGDYWGQGSQVTVSS` the listed polyreactivity (PSR sort gate) is high polyreactivity

---

Test: yeast display, Sf9 membrane polyspecificity reagent, FACS + sequencing; frameworks hold sequencing errors
quantity-measured: polyreactivity (PSR sort gate)

Recorded polyreactivity (PSR sort gate), per entry:
QVQLVESGGGIVQAGGSLRLSCAASGFILDYNAMGWYRQAPGKERELVATITGRGDRTYYADSVKGRFTISRDNAKNTVYLQMNSLKPEDTAVYDCAAGFDGSRHPGFDSWGQGTQVTVSS = low polyreactivity
QVQLVESGGGIVQAGGSLRLSCPASGRIFGPNAMGGYRQAPGKERELVAVISRRGTSTYYADSVKGRFTISRDNAKNTVYLQMNRLKPEDTAVYYCAAGGHYLYDYWGQGTQVTVSS = high polyreactivity
QVQLVESGGGLVQAGGSLRLSCAASGSIFRYYAMGWYRQAPGKERELVATISSGGRTYYADSVKGRFTISRDNAKNTVYLQMNSQKPEDTAVYYCAARYGTTRYGFDYWGQGTQVTVSS = high polyreactivity
QVQLVESGGGLVQAGGSLRISCAASGNIIRKYAMGWYRQAPGKEREFVAAISSSGGRTYYADSVKGRFTISRDNAKNTVYLQMNSLKPEDTAGYYCARPYSYAYVLGDYWGQGTQVTVSS = high polyreactivity
QVQLVESGGGLVQAGGSLRLSCAASGFTFPGYAMGWYRQAPGKERELVAAISKRGGSTYYADSVKGRFTISRDNAKNTVYLQMNSLKPEDTAVYYCAKSRRGSFYYPYTYTKSGYEYWGQGTQVTVSS = high polyreactivity
QVQLVESGGGLDQAGGSLRLSCAASGSTFKHNAMGWYRQAPAKERVLVAGISWGGSSTYYADSVKGRFTISRDNAKNTVYLQMNSLKPDDTAVYYCAKGGYRRYGYDYWGQGTQVTVSS = low polyreactivity
QVQLVESGGGLVQAGGSLRLSCAASGSTFWFYAMGWYRQAPGKERELVAVISNSGSTYYADSVKGRFTISRDNAKNTVYLQMNSLKPEDTAVYYCNKDGGGDSYWYDYWGQGTLVTVSS = low polyreactivity
QVQLVESGGGLVQAGGSLRLSCAASGRTFGGYAMGSYRQAPGKERELVAAISRSGGRTYYADSVKGRFTISRDNAKNTVYLQMNSLKPEDSAVYYWADRLYVGPTAMDYWGEGTQVTVSS = high polyreactivity

For record `QVQLVESAGGLVQAGGSLRLSCAASGSIFGSNAMGWYRQAPGKERELVASITSSGGSTHYADSVKGRFTISRDNAKNTVYLQMNSLKPEDTAVSYCATRAYGYYRWLYDYWGQGTQVTGSS` the listed polyreactivity (PSR sort gate) is low polyreactivity

For record `QVQLVESGGGLVQAGGSLRLSCAASGSTFGWNAMGWYRQAPGKERELVAAISSSGGITYYAYSVKGRFTISRDKAKNTVSLQMNSLKPEDTAVYYCAAERDDDWGNYWGQGTQVTGSS` the listed polyreactivity (PSR sort gate) is low polyreactivity

For record `QDQLVESGGGLVQAGGSLRLSCAASGFIFRWYAMGWYRQAPGKERELVAAISRSGDSTYYADSVKGRFTISRDNAKNTVYLQMNSLIPEDTAVYYCAADDRYYTYGYDYWGQGTQVTVSS` the listed polyreactivity (PSR sort gate) is low polyreactivity

---

Assay: yeast display, Sf9 membrane polyspecificity reagent, FACS + sequencing; frameworks hold sequencing errors
quantity-measured: polyreactivity (PSR sort gate)

Recorded polyreactivity (PSR sort gate), per entry:
QVQLVESGGGLVQAGGSLRLICAASGRIFLTYAMGWYRQAPGKERELVAAISTSGTRTYYADSVKGRFTISRDTAKKTVYLQMNSLKPEDTAVYHCAREKYNYRTYEYWGQGTQVTVSS = high polyreactivity
QVQLVESGGGLVQAGGTLSLSCAATGRNFYCYAMGWYRQAHGKERELVAAINWSGGTTYYADSVKGRFTISRDNAKNTVYLQMNSLKPEDTAVYYSAADRILEMGYWGQGTQVTVSS = low polyreactivity
QVQLVESGGGLVQAGGSLRLSCAASGYTFSTYAMGWYRQAPGKERELFAAISYSGGRTRYADSVKGRFTISRDNAKNTVYLQMNSLKPEDTAVYYCAAKSGYGYGYWGQGTQVTVSS = high polyreactivity
QVQLVESGGGLVQAGGSLRLSCAASGLIFLGYAMGWYRQAPGKERELVASIRTGGSTSYADSVKGRFTISRDNAKNTVYLQMNSLKPEDTAVYYCNARDYASGTEGDYWGQGTQVTVSS = low polyreactivity

--- query ---
For record `QVQLVESGGGLVQAGGSLRLSCAASGSIFPYYAMGWYRQAPGKERELVAGISRRGGTTYYADSVKGRFTISRDNAKNTVYLQMNSLKPEDTAVYYCAARYGPYVDRYGYWGQGTQVTVSS` the listed polyreactivity (PSR sort gate) is high polyreactivity
